conditions: in furfural, 325.05 K
reported-metric: solubility (mole fraction)
Answer field: number only, no words.

Identify measured solubility (mole fraction) corresponding to CCCCCC[n+]1csc2ccccc21.F[P-](F)(F)(F)(F)F
0.479

* * *

details: in furfural, 274.97 K
reported-metric: solubility (mole fraction)
Please reply with the value in numeric form only.

Quickly give me recorded solubility (mole fraction) for CCCCCCCC[n+]1csc2ccccc21.F[P-](F)(F)(F)(F)F
0.35

* * *

conditions: in water, 290.15 K
I'd appreciate it if you could supply solubility (mole fraction) values for the items below.

Consider the molecule CCCCC[n+]1csc2ccccc21.F[P-](F)(F)(F)(F)F . State its measured solubility (mole fraction).
4.01e-05

Give the value of solubility (mole fraction) reported for the following: CCCCCCCC[n+]1csc2ccccc21.F[P-](F)(F)(F)(F)F
2.61e-05
